tested.target: wheat endosperm ADP-glucose pyrophosphorylase (Triticum aestivum, UniProt P12299+P30523)
Sequence (P12299 63-522): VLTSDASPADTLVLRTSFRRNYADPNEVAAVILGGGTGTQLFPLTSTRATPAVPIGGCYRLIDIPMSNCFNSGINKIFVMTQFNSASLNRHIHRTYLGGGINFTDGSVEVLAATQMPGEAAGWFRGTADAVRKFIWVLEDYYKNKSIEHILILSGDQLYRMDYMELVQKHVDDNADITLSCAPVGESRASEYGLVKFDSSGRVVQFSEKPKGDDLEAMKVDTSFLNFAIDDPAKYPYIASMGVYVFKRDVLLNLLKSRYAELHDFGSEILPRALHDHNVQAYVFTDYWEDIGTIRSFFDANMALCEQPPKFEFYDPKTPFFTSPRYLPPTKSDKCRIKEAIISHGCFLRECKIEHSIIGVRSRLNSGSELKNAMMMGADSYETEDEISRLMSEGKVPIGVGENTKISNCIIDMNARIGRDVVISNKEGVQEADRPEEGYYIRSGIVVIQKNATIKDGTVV
Sequence (P30523 whole entry): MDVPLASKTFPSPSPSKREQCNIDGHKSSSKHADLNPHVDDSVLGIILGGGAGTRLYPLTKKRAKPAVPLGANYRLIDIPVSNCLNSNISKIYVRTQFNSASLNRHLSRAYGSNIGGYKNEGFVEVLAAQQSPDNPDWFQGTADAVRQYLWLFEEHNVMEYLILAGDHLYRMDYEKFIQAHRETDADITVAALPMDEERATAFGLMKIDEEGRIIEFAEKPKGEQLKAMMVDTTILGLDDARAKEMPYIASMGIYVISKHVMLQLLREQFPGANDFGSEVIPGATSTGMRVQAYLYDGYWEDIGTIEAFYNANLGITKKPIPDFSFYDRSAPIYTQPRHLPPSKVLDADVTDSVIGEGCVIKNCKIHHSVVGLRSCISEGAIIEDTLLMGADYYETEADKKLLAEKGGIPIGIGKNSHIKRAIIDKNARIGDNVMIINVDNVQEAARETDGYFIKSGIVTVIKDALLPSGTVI
condition.label: read-out: concentration required to achieve half-maximal inhibition of enzyme activity; wheat endosperm enzyme
observation.type: IC50
Give the number first and the unit second.

O=P(O)(O)O [orthophosphate] has a reported IC50 of 700 µM

###

tested.target: wheat leaf ADP-glucose pyrophosphorylase (Triticum aestivum, UniProt P12298)
Sequence (P12298 1-301): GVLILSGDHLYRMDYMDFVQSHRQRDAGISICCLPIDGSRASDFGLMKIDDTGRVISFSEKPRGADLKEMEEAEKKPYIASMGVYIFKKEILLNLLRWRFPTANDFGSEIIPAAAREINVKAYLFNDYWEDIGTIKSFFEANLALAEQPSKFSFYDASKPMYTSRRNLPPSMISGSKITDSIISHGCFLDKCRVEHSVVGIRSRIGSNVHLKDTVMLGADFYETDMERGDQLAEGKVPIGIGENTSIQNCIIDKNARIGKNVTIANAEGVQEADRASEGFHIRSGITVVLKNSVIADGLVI
Sequence (P30523 2-473 partner): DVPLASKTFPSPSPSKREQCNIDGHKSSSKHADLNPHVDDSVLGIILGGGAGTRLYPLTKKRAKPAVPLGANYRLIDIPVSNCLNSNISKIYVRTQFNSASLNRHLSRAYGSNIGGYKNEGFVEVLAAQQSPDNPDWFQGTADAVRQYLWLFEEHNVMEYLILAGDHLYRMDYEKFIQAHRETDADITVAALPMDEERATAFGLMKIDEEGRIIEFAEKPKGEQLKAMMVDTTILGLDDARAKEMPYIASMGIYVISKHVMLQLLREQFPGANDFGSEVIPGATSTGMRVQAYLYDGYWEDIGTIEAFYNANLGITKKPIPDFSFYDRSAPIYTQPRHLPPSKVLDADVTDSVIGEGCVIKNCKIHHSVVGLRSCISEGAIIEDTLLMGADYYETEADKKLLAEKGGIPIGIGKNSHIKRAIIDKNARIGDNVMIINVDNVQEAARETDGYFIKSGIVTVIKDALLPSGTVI
observation.type: IC50 (µM)
Numeric only. Scale: µM

The compound O=P(O)(O)O [orthophosphate] , when measured on wheat leaf ADP-glucose pyrophosphorylase (Triticum aestivum, UniProt P12298), yielded IC50 of 56
